# credit: the nanobody polyreactivity screen of Harvey et al. (2022)

assay: yeast display, Sf9 membrane polyspecificity reagent, FACS + sequencing; frameworks hold sequencing errors
Value kind: polyreactivity (PSR sort gate)

{"Monomer sequence": "QVQLVESGGGLVQAGGSLRLSCAASGFIFSPYAMGWYRQAPGKVRELVAAISRRGGSTYYADSVKGRFTISRDNAKNTVYLQMNSLKPEDTAVYYCAAVYGASQVDYDYWGQGTQVTVSS", "Value kind": "polyreactivity (PSR sort gate)", "Result": "high polyreactivity"}
{"Monomer sequence": "QVHLVESGGGLVQAGGSLRLSCAASGLIFYFYAKGWYRQAPGKERELVAGITNGGSTNYADSVKGRFTISRDNAKNTVYLQMNSLKPEDTAVYYCAAQYYTVRSTYDYWGQGTQVTVSS", "Value kind": "polyreactivity (PSR sort gate)", "Result": "high polyreactivity"}

====

assay: yeast display, Sf9 membrane polyspecificity reagent, FACS + sequencing; frameworks hold sequencing errors
Value kind: polyreactivity (PSR sort gate)

Here are 4 sequences together with their reported answers.
{"Monomer sequence": "KVQLVESAVGLVQAGGSLRLSCAASGPTFWRNAMGWYRQAPGKERELVAAISRGGSTNYADSVKGRFTISRDNAKNTVYLLMNSLKPEDTAVYYCAARYYYRYNYWGQGTQVTVSS", "polyreactivity (PSR sort gate)": "high polyreactivity"}
{"Monomer sequence": "QVQLVESGGGLVQAGGSLRLICAASGTFVTYMGWYRQAPGKERELVAAIRNGGSTNYADSVKGRFTISRDNAKNTVYLQMNSLKPEDTAVYYCAARVTYSRGYRGGSRTKYDYWGQGTQVTVSS", "polyreactivity (PSR sort gate)": "low polyreactivity"}
{"Monomer sequence": "QVQLVESGGGLVQAGGSLRLSCAASGRTFYGYAMGWSRQAPGKERELVAAISWTGGRTYYADSVKGRFTISRDNAKNTVFLQMNSLKPEDTAVYYCNARRRGDSGDGYIYGYWGQGTQVTVSS", "polyreactivity (PSR sort gate)": "high polyreactivity"}
{"Monomer sequence": "QVQLVESGGGLVQAGGSLRLSCAASGSTFFLNAMGWYRQAPGKESEFVAAISYTSTSTYYADSVKGRFTISRDNAKNTVYLQMNSLKPEDTAVYYCAVDAAGWYYTVETGDYAEDYWGQGTQVTVSS", "polyreactivity (PSR sort gate)": "low polyreactivity"}

API: the following record is the query input.
Problem: I would be grateful if you could share the reported polyreactivity (PSR sort gate) for QVQLVESGGGLVQAGGSLRLSCAASGRTYDNTMGWYRKAHGKESELVAAISWSGGRTRYADSVKGRFTISRDNAKNTVYLQMNSLKPEDTAVYYCAAANGGYPPYRYVYGYYYWGQGTQVTVSS .
Result: high polyreactivity

====

test: yeast display, Sf9 membrane polyspecificity reagent, FACS + sequencing; frameworks hold sequencing errors
Value kind: polyreactivity (PSR sort gate)

{"Monomer sequence": "QVQLVESGGGLVQAGGSLRLSCAATGLTFSTNTMGWYRQAPGKEREFVAAITARGGRTYYADSVKGRFTISRDNAKNTVYLQMNCLKPEDTAVYYCAANAYTYYARIGFDYWGQGTQVTVSS", "Result": "high polyreactivity"}
{"Monomer sequence": "QVQLVESGGGLVQAGGSLRLSSAASGSIFGSNAMGWYRQAPGKERELVATITTSGGITYYADSVKGRFTISRDTAKNTVYLQMNSLKPEDTAVYYCAAAEGGGLVTYDYWGQGTQVTVSS", "Result": "low polyreactivity"}
{"Monomer sequence": "QVQLEESGGGLVQAGGSLRLSCAASGSIFGLYAMGWYRQAPGKERELVAAISARGGSTYYADSVKGRFTISRDNAKNTVYLQMNSLKPEDTAVNYCATRQVSAYSYIYDYWGQGTQVTVSS", "Result": "high polyreactivity"}
{"Monomer sequence": "QVQLVESGGGLFQAGGSLRLSCAPSGSNFSIYAMGWYRQAPGKERELVAAITWGGGSTYYADSVKGRFTISRDNAKNTVYLQMNSLKPEETAVYDCAADSLTWYGTYYYWGQGTQVTVSS", "Result": "high polyreactivity"}
{"Monomer sequence": "QLQLVESGGGIVQAGGSLRLSCAASGSIFPYNAMGWYRQAPGKEREFVAAINLSGGSTNYADSVKGRFTISRDNANYTFYLQMNSLKPEDTAVYYCNAPVVYFLPLNFDYWGQGTKVTVSS", "Result": "low polyreactivity"}
{"Monomer sequence": "QVQVVDSGGGLVQAGGSLLLSCAASGSILGFNAMGWYRQSPGKEMELVASISSSGDSTYYADSEKGRFTISRDNAKNTVYLQMNSLKPEDTAVYYCATEGRTDYNREMEYWGQGSQVTVSS", "Result": "low polyreactivity"}
{"Monomer sequence": "QVQLVESGGGLVQAGGSLRLSCAASGYTFRGYAMGWYRQAPGKERELVAAISWSGGRTYYADSVKVRFTISRDNAKNTVYLQMNSLKPEDTAVYYCDAETHVGWPAKFDYWGQGTQVTVSS", "Result": "high polyreactivity"}
{"Monomer sequence": "QVQLVESGGGLDQAGGSLRLSCAASGRIFCQYAMGWYRQAPGKERELVAAMSRSGGSTYYAHSVKGRFTISRDNAKNTVYLQMTSLKPEDTAVYYCAARKASGDPGSAGRPEYYYWGQGNQVTVSS", "Result": "high polyreactivity"}
{"Monomer sequence": "QVQLVESVVGLVQAGGSLRLSCDASGRIFRYYAMGWYRQAPGKERELVARITSSGSTYYADSVKGRFTISRDNAKNTVYLQMNSLKPDDTAVYYCAADWYWGGIVDSWGQGTQVTVSS", "Result": "high polyreactivity"}
{"Monomer sequence": "QVQLVESGGGLVQAGGSLRLSCAASGLIFDPYAMGWYRQAPGKERELVAAITWSGDSTSYADSVKGRFTISRDNAKNTVYLQMNSLKPEDTAVYYCAADGWSRSWGYWVHYGYWGQGTQVTVSS", "Result": "low polyreactivity"}

Problem: I would be grateful if you could share the reported polyreactivity (PSR sort gate) for QVQLVESGGGLVQAGGRLRLSCAASGSIFLFYAMGWYRKAPVKERELVARITSSGGTTYYADSVKGRFTISRDNAKNTVYLQMNSLKPEDTAVYYCAASYFIYHYDFDYWGQGTQVTVSS .
Result: high polyreactivity
